# Ki annotations
# study.target: UniProt:P61823
# Assay type: biochemical, bovine
# condition.context: 0.2M Mes pH 5.9, 75 μM CpG, 25° C.; read-out: Ki at indicated pH, pH 5.9
Write the value in nM as a bare number.

Examples with answers:
- Nc1ncnc2c1ncn2[C@@H]1O[C@H](COP(=O)(O)OP(=O)(O)O[C@H]2C[C@H](n3ccc(=O)[nH]c3=O)O[C@@H]2CO)[C@@H](OP(=O)(O)O)[C@H]1O: 130
- Nc1ncnc2c1ncn2[C@@H]1O[C@H](COP(=O)(O)OP(=O)(O)O)[C@@H](OP(=O)(O)O)[C@H]1O [ppAp, 5'-diphosphoadenosine-3'-phosphate]: 240
- Nc1ncnc2c1ncn2[C@@H]1O[C@H](COP(=O)(O)OP(=O)(O)O[C@H]2C[C@H](n3ccc(=O)[nH]c3=O)O[C@@H]2CO)[C@@H](O)[C@H]1OP(=O)(O)O: 660
- Cc1cn([C@H]2C[C@H](OP(=O)(O)OP(=O)(O)OC[C@H]3O[C@@H](n4cnc5c(N)ncnc54)[C@H](O)[C@@H]3OP(=O)(O)O)[C@@H](COP(=O)(O)O)O2)c(=O)[nH]c1=O: 52
- Nc1ncnc2c1ncn2[C@@H]1O[C@H](COP(=O)(O)OP(=O)(O)O[C@H]2C[C@H](n3ccc(=O)[nH]c3=O)O[C@@H]2COP(=O)(O)O)[C@@H](OP(=O)(O)O)[C@H]1O: 35

Item `Cc1cn([C@H]2C[C@H](OP(=O)(O)OP(=O)(O)OC[C@H]3O[C@@H](n4cnc5c(N)ncnc54)C[C@@H]3O)[C@@H](CO)O2)c(=O)[nH]c1=O` has what recorded Ki?
3500

* * *

# study.target: RNase A (Bos taurus, UniProt P61823)
# Sequence (P61823 27-150): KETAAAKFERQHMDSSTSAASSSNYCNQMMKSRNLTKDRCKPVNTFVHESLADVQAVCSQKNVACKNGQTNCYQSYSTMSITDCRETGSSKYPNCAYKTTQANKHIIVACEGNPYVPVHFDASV
# assay.method.text: Inhibition of RNase A activity toward CpA, HPLC method
# pKi annotations
Schema: pKi number; meaning minus log10 of the concentration expressed in molar units.

Examples with answers:
- Cc1cn([C@H]2C[C@H](OP(=O)(O)OC[C@H]3O[C@@H](n4cnc5c(N)ncnc54)C[C@@H]3O)[C@@H](CO)O2)c(=O)[nH]c1=O: 2.89
- Nc1ccn([C@@H]2O[C@H](CO)[C@@H](O)[C@H]2OP(=O)(O)O)c(=O)n1 [2'-CMP, Cytidine 2'-monophosphate]: 5.51
- Nc1ncnc2c1ncn2[C@@H]1O[C@H](COP(=O)(O)O)[C@@H](OP(=O)(O)O)[C@H]1O [pAp, adenosine 3',5'-diphosphate]: 5.25

Item Nc1ncnc2c1ncn2[C@@H]1O[C@H](COP(=O)(O)OP(=O)(O)O)[C@@H](OP(=O)(O)O)[C@H]1O [ppAp, 5'-diphosphoadenosine-3'-phosphate] has what recorded pKi?
6.62

* * *

# study.target: RNase A (Bos taurus, UniProt P61823)
# Assay type: biochemical, bovine
# condition.context: 0.2M Hepes pH 8.0, 75 μM CpG, 25° C.; read-out: Ki at indicated pH, pH 8
measurement.name: Ki
Quick note: unit goes after the number.

Examples with answers:
- Cc1cn([C@H]2C[C@H](OP(=O)(O)OP(=O)(O)OC[C@H]3O[C@@H](n4cnc5c(N)ncnc54)[C@H](O)[C@@H]3OP(=O)(O)O)[C@@H](COP(=O)(O)O)O2)c(=O)[nH]c1=O [pTppAp]: 28 µM
- Nc1ncnc2c1ncn2[C@@H]1O[C@H](COP(=O)(O)OP(=O)(O)O[C@H]2C[C@H](n3ccc(=O)[nH]c3=O)O[C@@H]2COP(=O)(O)O)[C@@H](OP(=O)(O)O)[C@H]1O [pdUppAp]: 22 µM
- Nc1ncnc2c1ncn2[C@@H]1O[C@H](COP(=O)(O)OP(=O)(O)O[C@H]2C[C@H](n3ccc(=O)[nH]c3=O)O[C@@H]2CO)[C@@H](OP(=O)(O)O)[C@H]1O [dUppAp]: 44 µM

Then this molecule:
Reported Ki for RNase A (Bos taurus, UniProt P61823), given Nc1ncnc2c1ncn2[C@@H]1O[C@H](COP(=O)(O)OP(=O)(O)O)[C@@H](OP(=O)(O)O)[C@H]1O [ppAp, 5'-diphosphoadenosine-3'-phosphate] ?
217 µM
